The values you see were collected from PubChem BioAssay (NCI).

# Test system: OVCAR-3 ovarian
# ASSAY_COMMENT: NCI tumour cell line growth inhibition, 48 h
MEASURED_METRIC: TGI

(Q) State the recorded TGI for this entry: CN1C(=O)N(C)C2C1NN=c1s/c(=C\c3ccc(F)cc3)c(=O)n12 (stereo not given)
(A) 8.09 µM

(Q) Further, for CN1C(=O)N(C)C(O)C(Cl)(Br)C1=O (stereo not given) ?
(A) > 100 µM

(Q) Same for Cn1c(=O)c2c(nc3n(Cc4ccccc4)c(=O)c(NCCCBr)cn23)n(C)c1=O
(A) > 100 µM

(Q) Item: NC(N)=NCCC1OC(=O)C2=C1c1c(O)ccc3nccc(c13)O2 (stereo not given)
(A) > 100 µM

(Q) Now give it for COc1cc(C(=O)Nc2cc3c(cc2Oc2cc(C)cc(C)c2)C(=O)N(C)[C@@H](CC(=O)N(C)O)C(=O)N3)c(Br)c(OC)c1OC too.
(A) < 0.00333 µM

(Q) Entry to check: CSC(SC)=C(C(=O)O)P(=O)(O)O
(A) > 100 µM

(Q) Entry CCOC(=O)c1cc(/C=C/C(C)=C/C(=O)OC)oc1C please
(A) > 100 µM

(Q) Record: Cc1cccc(-n2c(=S)[nH]c3c(sc(=O)n3-c3ccccc3C)c2=O)c1
(A) > 100 µM

***
(Q) Fill blank: measured TGI of the compound COc1ccc(-c2ccc(-c3ccc(C(=N)N)cn3)o2)cc1 is ____.
(A) 21.6 µM

(Q) What do we get for COc1ccc(OC2OC(CO)C(OCc3ccccc3)C(OCc3ccccc3)C2OCc2ccccc2)cc1 (stereo not given) ?
(A) > 100 µM

###

# Test system: UACC-62 melanoma
# ASSAY_COMMENT: NCI tumour cell line growth inhibition, 48 h
Each item that follows carries a reported TGI.

(Q) Field request: TGI | item: CCOc1cccc(/C=N/NC(=O)C(=O)Nc2cccc(C(F)(F)F)c2)c1O
(A) 4.51 µM

(Q) Then what about the molecule CN1C(=O)N(C)C2C1NN=c1s/c(=C\c3ccc(F)cc3)c(=O)n12 (stereo not given) ?
(A) > 100 µM

(Q) Can you check Nc1ccccc1C#C/C=C\C#Cc1ccccc1 next?
(A) 27.7 µM

(Q) Follow-up entry: CC1CCC2(NC1)OC1CC3C4CC=C5CC(OC6OC(CO)C(OC7OC(C)C(O)C(O)C7O)C(O)C6OC6OC(C)C(O)C(O)C6O)CCC5(C)C4CCC3(C)C1C2C (stereo not given)
(A) 7.71 µM

---
(Q) Entry under review: COc1ccc(Nc2nc(N)c(C(=O)c3c[nH]c4ccccc34)s2)cc1 . Reported TGI?
(A) > 100 µM

(Q) Would you kindly repeat that for Cc1cc(S(=O)(=O)NC#N)c(S/C(=N\Nc2ccc([N+](=O)[O-])cc2)c2ccc(Cl)cc2)cc1Cl ?
(A) > 100 µM

(Q) Field entry: CC1C(NNc2ccccc2)Oc2cc3c(cc2C1c1ccccc1O)OCO3 (stereo not given)
(A) 17.2 µM

(Q) # iterate: COc1ccc2c(c1)/C(=C\c1c(Cl)[nH]c3ccc(OC)cc13)C(=O)N2
(A) > 100 µM

(Q) Consider next the molecule OCCOCn1nncc1Cn1ncc2c(SCc3ccccc3)ncnc21 in the same way.
(A) > 100 µM

###

# System: NCI/ADR-RES ovarian
# ASSAY_COMMENT: NCI tumour cell line growth inhibition, 48 h
Parameter: TGI. Scope: all listed entries.
Provide the reading as a plain figure in µM.

Below: 2 molecules and their reported TGI.
(Q) Param item = CCCCC1=C(C(=O)N2CCOCC2)C2(OCCO2)C1=O ; retrieve measured TGI.
(A) 57.2

(Q) Entry to check: O=C1NC(=S)S/C1=C(/C=C(\CC(=O)c1ccccc1)c1ccc(Cl)cc1)c1ccccc1
(A) 79.9

Switching to the query record.
(Q) For the molecule COc1cccc2c1C(=O)c1c(O)c3c(c(O)c1C2=O)C[C@H](O)C[C@@H]3OC1CC(N)C(O)C(C)O1 (stereo not given in full) , what TGI is on record?
(A) 62.3

###

# Tested on: NCI-H23 lung
# ASSAY_COMMENT: NCI tumour cell line growth inhibition, 48 h; in the data active = GI50 below about 0.43 µM; inactive = the rest
Pick one: yes (1) for active, no (0) for inactive

(Q) Per the assay record, what outcome was assigned to COc1ccc(C2=NN(C=O)C(c3cccc(Nc4ccnc5cc(Cl)ccc45)c3)C2)cc1 (stereo not given) ?
(A) no (0)

(Q) Queued: COc1ccccc1/C=C/C(=O)c1ccccc1
(A) no (0)

(Q) Now the same for Cc1sc2nc3c4ccccc4c(NCCCN(C)C)nn3c(=O)c2c1C
(A) no (0)

(Q) Also check Cn1c2c(c3ccc(Cl)c(Cl)c31)C(C#N)C1(CCNCC1)NC2=O (stereo not given)
(A) no (0)

Continuing:
(Q) Write down the call the test reported for this compound. Item: Cc1ccc(-c2csc(NC(=O)CN3CCN(c4cc5c(cc4F)c(=O)c(C(=O)O)cn5C4CC4)CC3)n2)cc1
(A) yes (1)

(Q) Same for CCn1c2ccc(O)cc2c2c(C)c3c[n+](C)ccc3c(C)c21
(A) no (0)

(Q) Same question for CCOc1cccc(/C=N/NC(=O)C(=O)Nc2cccc(C(F)(F)F)c2)c1O please.
(A) no (0)

(Q) Would you mind doing CCn1c(-c2nonc2N)nc2c(C#CC(C)(C)O)nc(OCCNC)cc21 as well?
(A) no (0)

(Q) Next record, please: O=C(O)C1CCCCC1C(=O)O.[NH-]C1CCC1.[NH2-].[Pt+2] (stereo not given)
(A) no (0)

(Q) Okay, and Cc1cc(S(=O)(=O)NC#N)c(S/C(=N\Nc2ccc([N+](=O)[O-])cc2)c2ccc(Cl)cc2)cc1Cl ?
(A) no (0)

###

# Test system: CCRF-CEM leukemia
# ASSAY_COMMENT: NCI tumour cell line growth inhibition, 48 h
# TGI listing for each entry below

(Q) Consider the compound shown here: NCCCCNCCCNC(=O)c1nc(-c2nc(CCN)sc2Cl)sc1Cl What is its recorded TGI?
(A) > 100 µM

(Q) For O=P(O)(O)c1ccccc1Oc1ccccc1 then?
(A) > 100 µM

(Q) Entry Cc1cc(C)c(S(=O)(=O)N(CCCN)OCCCON(CCCN)S(=O)(=O)c2c(C)cc(C)cc2C)c(C)c1 please
(A) 16.8 µM

(Q) Now the compound c1ccc2c(c1)Sc1nccc3ccnc-2c13
(A) > 100 µM

(Q) Also CCOc1ccc(Nc2nc(N)nc(N)c2N)cc1 ?
(A) > 100 µM

Then there is this compound:
(Q) I would be grateful if you could share the reported TGI for Fc1cc2[nH]ncc2c2c3c(c(-c4cn[nH]c4C(F)(F)F)nc12)C1CCC3C1 (stereo unspecified) .
(A) > 50 µM

###

# Test system: SF-539 CNS
# ASSAY_COMMENT: NCI tumour cell line growth inhibition, 48 h
Below, each entry is listed alongside its reported TGI.

Observe how each entry below is paired with its result.
(Q) Request - read-out TGI | tested on SF-539 CNS | compound CN(C)/N=C(/c1nc2ccc(Cl)cc2[nH]c1=O)C(O)c1ccc(C(O)/C(=N\N(C)C)c2nc3ccc(Cl)cc3[nH]c2=O)cc1 (stereo not given)
(A) > 100 µM

(Q) Continue with O=c1nc2c(c(-c3ccc(Br)cc3)[nH]1)COC/C2=C\c1ccc(Br)cc1
(A) > 50 µM

(Q) Now the compound C=C1N(C=O)C(C)(C)N(O)C1(C)C
(A) > 100 µM

(Q) One more compound: C=C1C(=O)O[C@H]2[C@H]1CC/C(COC(=O)c1cc3cc(Cl)ccc3[nH]1)=C\CC[C@@]1(C)O[C@@H]21
(A) 2.92 µM

Continuing:
(Q) // map CCC(O)(Cc1ccc(OC)cc1)c1ccc(OC)cc1 (stereo not given) to recorded TGI (system: SF-539 CNS)
(A) > 100 µM

###

# Test system: SNB-75 CNS
# ASSAY_COMMENT: NCI tumour cell line growth inhibition, 48 h
MEASURED_METRIC: TGI

(Q) Give TGI (SNB-75 CNS) of the following molecule: O=C(N/N=C(/CCN1CCCC1)CC(c1ccccc1)c1c(O)c2ccccc2oc1=O)c1ccncc1 (stereo not given)
(A) > 100 µM

(Q) One more molecule: CC1C(=O)OCC2=CCN3CCC(OC(=O)C(C)C1(C)O)C23 (stereo not given)
(A) > 100 µM

(Q) And COc1ccc(Cn2cc3c(c2)-c2oncc2CC3)cc1 ?
(A) 40.5 µM

(Q) Another molecule: O=c1[nH]c2nc3ccccc3nc2[nH]c1=O
(A) > 100 µM

(Q) Okay, and NCCCCNc1ccc2c(=O)[nH][nH]c(=O)c2c1 ?
(A) > 100 µM

(Q) COC(=O)C(CC(=O)Nc1ccc(C)cc1)C(=O)C(=O)Nc1ccccc1C(C)C (stereo not given) ?
(A) > 100 µM

(Q) Now the same for CC(C)c1cccc(C(C)C)c1NC(=O)/C(CC(=O)CC(c1ccccc1)c1c(O)c2ccccc2oc1=O)=N/O (stereo not given)
(A) > 100 µM

(Q) And what about the molecule COC(=O)c1ccccc1NC(=O)C(=O)NNC(=O)c1ccncc1 ?
(A) > 100 µM

(Q) // repeat for COc1cc(-c2cn(-c3ccc(Cl)c(Cl)c3)c(=O)n2C(C)=O)cc(OC)c1OC and report
(A) 33.8 µM

(Q) Query OCCNc1ncnc2c1ncn2Cc1cccc(COc2cccc(OCc3cccc(Cn4cnc5c(NCCO)ncnc54)c3)c2)c1 next
(A) 27.4 µM
